biological target: serum proteins; assay: 90% serum, 30 kDa ultrafiltration, HPLC
Observed Property: Protein binding (%)
Number in %, nothing else.

Worked examples, 3 binders total:
Binder: GFCWNVCVYRNGARVCHRRCN [SEQ ID NO: 235]
Unit Of Measure: %
Protein binding (%): 64
//
Binder: GFCWYGCVYRNGVRVCYRRCN [SEQ ID NO: 15]
Unit Of Measure: %
Protein binding (%): 96
//
Binder: GFCWRVCSYRNGVRKCYRRCN [SEQ ID NO: 331]
Unit Of Measure: %
Protein binding (%): 95

Field: next binder
Measured Protein binding (%), GFCWYACAYRNGVRACYRRCN [SEQ ID NO: 343] : 74
